Molecular target: Receptor-type tyrosine-protein phosphatase eta (Homo sapiens) (UniProt Q12913)
Sequence (Q12913 whole entry, looked up): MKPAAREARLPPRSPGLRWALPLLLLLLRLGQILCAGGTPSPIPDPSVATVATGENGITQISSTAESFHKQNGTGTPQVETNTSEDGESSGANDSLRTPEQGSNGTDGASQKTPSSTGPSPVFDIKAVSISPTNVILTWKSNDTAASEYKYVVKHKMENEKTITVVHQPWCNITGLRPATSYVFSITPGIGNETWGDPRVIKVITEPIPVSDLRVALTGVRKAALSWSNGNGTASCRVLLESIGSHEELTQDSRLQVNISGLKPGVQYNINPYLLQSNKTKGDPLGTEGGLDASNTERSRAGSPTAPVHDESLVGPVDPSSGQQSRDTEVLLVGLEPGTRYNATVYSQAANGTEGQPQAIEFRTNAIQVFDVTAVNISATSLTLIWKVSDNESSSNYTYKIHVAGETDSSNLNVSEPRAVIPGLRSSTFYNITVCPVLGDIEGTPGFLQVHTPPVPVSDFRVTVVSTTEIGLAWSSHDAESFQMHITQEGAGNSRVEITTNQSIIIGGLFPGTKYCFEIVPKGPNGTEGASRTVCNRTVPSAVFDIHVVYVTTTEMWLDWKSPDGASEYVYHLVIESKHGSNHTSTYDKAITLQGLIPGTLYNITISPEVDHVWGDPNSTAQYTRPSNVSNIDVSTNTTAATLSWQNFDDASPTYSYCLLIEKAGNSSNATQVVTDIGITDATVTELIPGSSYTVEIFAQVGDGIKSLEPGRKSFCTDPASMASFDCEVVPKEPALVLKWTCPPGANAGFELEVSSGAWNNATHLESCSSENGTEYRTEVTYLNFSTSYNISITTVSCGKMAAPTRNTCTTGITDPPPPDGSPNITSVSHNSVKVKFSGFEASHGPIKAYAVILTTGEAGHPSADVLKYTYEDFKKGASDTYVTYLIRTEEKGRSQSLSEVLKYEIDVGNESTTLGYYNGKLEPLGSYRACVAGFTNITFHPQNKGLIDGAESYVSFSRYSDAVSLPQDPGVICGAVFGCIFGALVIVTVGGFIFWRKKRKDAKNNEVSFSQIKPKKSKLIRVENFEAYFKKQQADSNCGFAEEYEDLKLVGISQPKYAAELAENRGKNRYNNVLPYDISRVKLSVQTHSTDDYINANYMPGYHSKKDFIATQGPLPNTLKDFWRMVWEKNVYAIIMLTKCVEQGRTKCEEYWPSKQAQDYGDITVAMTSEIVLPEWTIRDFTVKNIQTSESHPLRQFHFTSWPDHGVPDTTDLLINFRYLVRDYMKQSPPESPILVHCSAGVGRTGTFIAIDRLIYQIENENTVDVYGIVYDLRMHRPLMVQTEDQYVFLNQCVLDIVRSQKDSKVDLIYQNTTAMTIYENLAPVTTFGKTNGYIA
Assay: inhibition of receptor phosphatase PTPRJ activity – biochemical, human, DiFMUP fluorescence (AID 403)
Conditions: recombinant PTPRJ, 25 C, at 50 µM, enzyme 0.05 ng/mL, DTT 5 mM, active compounds read high
Documented inhibition across a set of compounds
Dear colleague, please return just the value in %, with no unit written.

A selection of reference data follows.
smiles_data=Cc1ccc(N=Cc2cc(C(=O)O)ccc2O)c(O)c1 target_or_system="Receptor-type tyrosine-protein phosphatase eta (Homo sapiens) (UniProt Q12913)" unit_info=% recorded_measurement=55
smiles_data=O=C(O)c1ccc(O)c(N2C(=O)Nc3ccccc3N2O)c1 target_or_system="Receptor-type tyrosine-protein phosphatase eta (Homo sapiens) (UniProt Q12913)" unit_info=% recorded_measurement=82
smiles_data=COc1ccc(-c2nc3cc(N=Cc4cc(C(=O)O)ccc4O)ccc3o2)cc1 target_or_system="Receptor-type tyrosine-protein phosphatase eta (Homo sapiens) (UniProt Q12913)" unit_info=% recorded_measurement=67
smiles_data=O=C(O)c1ccc(O)c(C=Nc2ccc3oc(-c4ccccc4)nc3c2)c1 target_or_system="Receptor-type tyrosine-protein phosphatase eta (Homo sapiens) (UniProt Q12913)" unit_info=% recorded_measurement=52
smiles_data=O=C(O)c1ccc(O)cn1.OO.[O]=[V] target_or_system="Receptor-type tyrosine-protein phosphatase eta (Homo sapiens) (UniProt Q12913)" unit_info=% recorded_measurement=92

Prompt: Determine its reported inhibition: O=C(O)c1ccc([O-])cn1.OO.OO.[K+].[K+].[O]=[V]
Completion: 99

Prompt: Determine its reported inhibition: O=C1NC(=S)S/C1=C\C=C\c1ccc([N+](=O)[O-])o1
Completion: 50

====

Biological target: Receptor-type tyrosine-protein phosphatase eta (Homo sapiens) (UniProt Q12913)
Assay: inhibition of receptor phosphatase PTPRJ activity – biochemical, human, DiFMUP fluorescence (AID 403)
Conditions: recombinant PTPRJ, 25 C, at 50 µM, enzyme 0.05 ng/mL, DTT 5 mM, active compounds read high
ASSAY_READOUT: inhibition (%)
Dear colleague, please return just the value in %, with no unit written.

A selection of reference data follows.
smiles_data=Cc1c(Cl)c(C)c([N+](=O)[O-])c(O)c1C=Nc1ccc(O)cc1C(=O)O target_or_system="Receptor-type tyrosine-protein phosphatase eta (Homo sapiens) (UniProt Q12913)" recorded_measurement=95
smiles_data=[NH-]CO.[NH-]CO.[NH-]CO.[NH-]CO.[O]=[V][O][V]=[O] target_or_system="Receptor-type tyrosine-protein phosphatase eta (Homo sapiens) (UniProt Q12913)" recorded_measurement=100
smiles_data=CN(N=O)c1ccc(O)c(O)c1 target_or_system="Receptor-type tyrosine-protein phosphatase eta (Homo sapiens) (UniProt Q12913)" recorded_measurement=97
smiles_data=OO.OO.[K+].[O]=[V].c1ccc(-c2ccccn2)nc1 target_or_system="Receptor-type tyrosine-protein phosphatase eta (Homo sapiens) (UniProt Q12913)" recorded_measurement=98
smiles_data=O=C([O-])c1ccccn1.OO.OO.[K+].[K+].[O]=[V] target_or_system="Receptor-type tyrosine-protein phosphatase eta (Homo sapiens) (UniProt Q12913)" recorded_measurement=100

Let us examine a further case.
Prompt: Determine its reported inhibition: CC(C)(c1ccc(NS(=O)(=O)C(F)(F)F)cc1)c1ccc(C(C)(C)c2ccc(NS(=O)(=O)C(F)(F)F)cc2)cc1
Completion: 66
